- subjectOfTest: T1, human FGFR2b (Kaixia Biotechnology, catalog number FGR-HM1BB) (human, UniProt P21802-3 22-378)
- T1 construct: extracellular domain; bought; also called hFGFR2b; human FGFR2b protein
- assay: BLI, antibody on AHC2 sensor
In plain terms, low koff, meaning strictly below 0.001 s⁻¹, gives criterion met, and everything else gives criterion not met.

binder="3C7-VH2-VL3 (antibody, human IgG1, kappa, V domains shown, humanized IgG1) VH: QVQLVQSGAEVKKPGASVKVSCKASGYIFRNYYIHWVRQAPGQGLEWMGAIYPDNGDTSYNQRFKVRATLTADTSTSTVYMELSSLRSEDTAVYYCARAFTYWGQGTTVTVSS VL: DIQMTQSPSSLSASVGDRVTITCGASENIYGALNWYQRKPGKSPKLLIYGATNLADGVPSRFSGSGSGTDYTLTISSLQPEDVATYYCQNVLSTPYTFGGGTKLEIKR" label="criterion met"
binder="3H9-VH0-VL0 (antibody, human IgG1, kappa, V domains shown, humanized IgG1) VH: QVQLVQSGAEVKKPGASVKVSCKASGYTFTFYNMHWVRQAPGQGLEWMGLIYPDNGDTSYNQKFKGRATLTADTSTSTVYMELSSLRSEDTAVYYCARGGLDYWGQGTTVTVSS VL: DIQMTQSPSSLSASVGDRVTITCRASENIYSNLAWYQQKPGKAPKLLIYAATNLADGVPSRFSGSGSGTDFTLTISSLQPEDFATYYCQHFWGTPYTFGGGTKVEIKR" label="criterion not met"
binder="3H9-VH2-VL0 (antibody, human IgG1, kappa, V domains shown, humanized IgG1) VH: QVQLVQSGAEVKKPGASVKVSCKASGYTFSFYNMHWVRQAPGQGLEWIGLIYPDNGDTSYNQKFKGRATLTADTSTSTVYMELSSLRSEDTAVYYCARGGLDYWGQGTTVTVSS VL: DIQMTQSPSSLSASVGDRVTITCRASENIYSNLAWYQQKPGKAPKLLIYAATNLADGVPSRFSGSGSGTDFTLTISSLQPEDFATYYCQHFWGTPYTFGGGTKVEIKR" label="criterion not met"
binder="3C7-VH0-VL0 (antibody, human IgG1, kappa, V domains shown, humanized IgG1) VH: QVQLVQSGAEVKKPGASVKVSCKASGYTFTNYYIHWVRQAPGQGLEWMGAIYPDNGDTSYNQRFKVRATLTADTSTSTVYMELSSLRSEDTAVYYCARAFTYWGQGTTVTVSS VL: DIQMTQSPSSLSASVGDRVTITCRASENIYGALNWYQQKPGKAPKLLIYGATNLADGVPSRFSGSGSGTDFTLTISSLQPEDFATYYCQNVLSTPYTFGGGTKVEIKR" label="criterion not met"
binder="3C7-VH1-VL0 (antibody, human IgG1, kappa, V domains shown, humanized IgG1) VH: QVQLVQSGAEVKKPGASVKVSCKASGYIFTNYYIHWVRQAPGQGLEWMGAIYPDNGDTSYNQRFKVRATLTADTSTSTVYMELSSLRSEDTAVYYCARAFTYWGQGTTVTVSS VL: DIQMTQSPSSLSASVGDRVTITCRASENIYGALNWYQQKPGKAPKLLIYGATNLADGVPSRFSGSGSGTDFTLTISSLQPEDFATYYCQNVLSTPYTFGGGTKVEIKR" label="criterion met"
binder="3C7-VH1-VL2 (antibody, human IgG1, kappa, V domains shown, humanized IgG1) VH: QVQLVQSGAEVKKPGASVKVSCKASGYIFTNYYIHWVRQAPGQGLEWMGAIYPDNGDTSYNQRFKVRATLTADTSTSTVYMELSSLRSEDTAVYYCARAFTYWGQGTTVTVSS VL: DIQMTQSPSSLSASVGDRVTITCGASENIYGALNWYQRKPGKAPKLLIYGATNLADGVPSRFSGSGSGTDYTLTISSLQPEDFATYYCQNVLSTPYTFGGGTKLEIKR" label="criterion not met"
binder="3C7-VH2-VL1 (antibody, human IgG1, kappa, V domains shown, humanized IgG1) VH: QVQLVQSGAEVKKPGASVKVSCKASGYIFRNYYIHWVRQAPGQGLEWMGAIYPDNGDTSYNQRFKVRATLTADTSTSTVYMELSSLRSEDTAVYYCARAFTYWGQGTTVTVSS VL: DIQMTQSPSSLSASVGDRVTITCGASENIYGALNWYQQKPGKAPKLLIYGATNLADGVPSRFSGSGSGTDYTLTISSLQPEDVATYYCQNVLSTPYTFGGGTKVEIKR" label="criterion met"
binder="3H9-VH1-VL1 (antibody, human IgG1, kappa, V domains shown, humanized IgG1) VH: QVQLVQSGAEVKKPGASVKVSCKASGYTFTFYNMHWVRQAPGQGLEWIGLIYPDNGDTSYNQKFKGRATLTADTSTSTVYMELSSLRSEDTAVYYCARGGLDYWGQGTTVTVSS VL: DIQMTQSPSSLSASVGDRVTITCRASENIYSNLAWYQQKPGKSPKLLIYAATNLADGVPSRFSGSGSGTDYTLTISSLQPEDFATYYCQHFWGTPYTFGGGTKVEIKR" label="criterion not met"
binder="3C7-VH0-VL3 (antibody, human IgG1, kappa, V domains shown, humanized IgG1) VH: QVQLVQSGAEVKKPGASVKVSCKASGYTFTNYYIHWVRQAPGQGLEWMGAIYPDNGDTSYNQRFKVRATLTADTSTSTVYMELSSLRSEDTAVYYCARAFTYWGQGTTVTVSS VL: DIQMTQSPSSLSASVGDRVTITCGASENIYGALNWYQRKPGKSPKLLIYGATNLADGVPSRFSGSGSGTDYTLTISSLQPEDVATYYCQNVLSTPYTFGGGTKLEIKR" label="criterion not met"
binder="3C7-VH0-VL2 (antibody, human IgG1, kappa, V domains shown, humanized IgG1) VH: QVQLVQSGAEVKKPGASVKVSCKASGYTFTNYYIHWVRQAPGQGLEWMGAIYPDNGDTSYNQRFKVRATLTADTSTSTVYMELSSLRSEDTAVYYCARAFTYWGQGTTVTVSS VL: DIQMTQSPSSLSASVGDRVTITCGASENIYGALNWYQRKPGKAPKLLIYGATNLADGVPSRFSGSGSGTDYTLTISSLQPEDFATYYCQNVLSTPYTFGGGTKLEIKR" label="criterion not met"
